Provenance of the data: paper PMC9616052

- target-desc: caspase-3 (Casp3) (Homo sapiens, UniProt P42574)
- Sequence (P42574 29-175 limits assumed): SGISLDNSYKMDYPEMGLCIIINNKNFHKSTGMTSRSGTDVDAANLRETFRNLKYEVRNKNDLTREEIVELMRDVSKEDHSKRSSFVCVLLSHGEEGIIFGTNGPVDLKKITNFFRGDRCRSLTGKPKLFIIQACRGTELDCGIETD
- Sequence (P42574 176-277 limits assumed): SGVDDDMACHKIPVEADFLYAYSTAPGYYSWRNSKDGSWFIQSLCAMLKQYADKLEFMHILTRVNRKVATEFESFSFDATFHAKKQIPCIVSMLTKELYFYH
Where a SMILES comes first, the peptide text is derived from it.
metric-name: Ki
Express your answer as a number followed by its unit.

{"compound": "CC(=O)NCCCC[C@H](NC(=O)[C@@H](NC(C)=O)C(C)C)C(=O)N[C@H](C=O)CC(=O)O [compound 31] (Ac-Val-Lys(Ac)-Asp-aldehyde)", "Ki": "9.55 µM"}

Given CC(=O)N[C@H](C(=O)N[C@@H](CC(=O)O)C(=O)N[C@H](C(=O)N[C@@H](C)C(=O)N[C@H](C=O)CC(=O)O)[C@@H](C)O)[C@@H](C)O [compound 55] (Ac-TDTAD-aldehyde) , state its recorded Ki.
0.0603 µM

What measured Ki goes with CC(=O)NCCCC[C@H](NC(=O)[C@@H](NC(=O)[C@@H](NC(C)=O)[C@@H](C)O)C(C)C)C(=O)N[C@H](C=O)CC(=O)O [compound 30] (Ac-TVK(Ac)D-aldehyde) ?
0.224 µM

Which Ki value belongs to CC(=O)N[C@H](C(=O)N1CCC[C@H]1C(=O)N[C@H](C=O)CC(=O)O)C(C)C [compound 17] (Ac-Val-Pro-Asp-aldehyde) ?
5.75 µM

* * *

- target-desc: caspase-2 (Casp2) (Homo sapiens)
- Sequence (P42575 170-333 limits assumed): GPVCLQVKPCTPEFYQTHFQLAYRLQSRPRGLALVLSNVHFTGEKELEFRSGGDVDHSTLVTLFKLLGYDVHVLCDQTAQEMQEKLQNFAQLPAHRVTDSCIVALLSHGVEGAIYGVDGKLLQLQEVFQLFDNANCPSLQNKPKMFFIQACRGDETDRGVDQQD
- Sequence (P42575 348-452 limits assumed): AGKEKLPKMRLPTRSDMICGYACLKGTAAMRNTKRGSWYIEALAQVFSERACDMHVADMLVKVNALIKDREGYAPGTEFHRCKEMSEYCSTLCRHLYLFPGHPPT
- experimental-details: Fluorometric enzyme inhibition assay, Casp2
- Assay type: biochemical
- run-parameters: SEM
Where a SMILES comes first, the peptide text is derived from it.
metric-name: Ki

Lab note: need Ki with caspase-2 (Casp2) (Homo sapiens) for entry CC(=O)N[C@H](C(=O)N[C@@H](CC(=O)O)C(=O)N[C@H](C(=O)N[C@@H](C)C(=O)N[C@H](C=O)CC(=O)O)[C@@H](C)O)[C@@H](C)O [compound 55] (Ac-TDTAD-aldehyde) , please look it up.
0.0331 µM

Look up Ki with caspase-2 (Casp2) (Homo sapiens) for this compound: CC(=O)NCCCC[C@H](NC(=O)[C@@H](NC(=O)[C@@H](NC(C)=O)[C@@H](C)O)C(C)C)C(=O)N[C@H](C=O)CC(=O)O [compound 30] (Ac-TVK(Ac)D-aldehyde)
20 µM

* * *

- target-desc: circularly permutated caspase-2 (cpCasp2) (Homo sapiens, UniProt P42575)
- Sequence (P42575 whole entry, change not shown): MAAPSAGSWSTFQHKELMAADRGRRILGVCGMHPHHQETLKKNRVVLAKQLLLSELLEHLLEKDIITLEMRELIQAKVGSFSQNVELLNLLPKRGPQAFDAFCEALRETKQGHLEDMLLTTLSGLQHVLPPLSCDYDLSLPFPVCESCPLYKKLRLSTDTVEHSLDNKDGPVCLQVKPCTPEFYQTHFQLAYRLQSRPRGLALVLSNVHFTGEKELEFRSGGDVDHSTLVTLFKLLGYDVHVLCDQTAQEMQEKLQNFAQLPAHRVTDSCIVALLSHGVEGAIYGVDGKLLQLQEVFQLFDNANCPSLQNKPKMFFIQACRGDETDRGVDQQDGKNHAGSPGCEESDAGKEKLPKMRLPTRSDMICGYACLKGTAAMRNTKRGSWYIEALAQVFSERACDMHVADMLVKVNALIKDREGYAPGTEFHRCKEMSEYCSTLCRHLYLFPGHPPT
- experimental-details: Fluorometric enzyme inhibition assay, cpCasp2
- Type: biochemical
pKi: −log10 of the molar value. Where a SMILES comes first, the peptide text is derived from it.
metric-name: pKi

Reported pKi, compound CC(=O)N[C@H](C(=O)N1CCC[C@H]1C(=O)N[C@H](C=O)CC(=O)O)C(C)C [compound 17] (Ac-Val-Pro-Asp-aldehyde) : ____
< 4.00
